Attribution: patent US20170227547A1

# target-entity: T1, human IL-12 (human, UniProt P29459 23-219; P29460 23-328)
# T1 construct: also called interleukin 12
# T1 sequence (looked up) 1: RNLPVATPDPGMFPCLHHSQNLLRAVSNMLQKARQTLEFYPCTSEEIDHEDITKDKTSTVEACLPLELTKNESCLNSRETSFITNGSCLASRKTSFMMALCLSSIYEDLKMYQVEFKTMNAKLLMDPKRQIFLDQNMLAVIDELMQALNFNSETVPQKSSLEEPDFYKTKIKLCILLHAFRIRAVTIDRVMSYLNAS
# T1 sequence (looked up) 2: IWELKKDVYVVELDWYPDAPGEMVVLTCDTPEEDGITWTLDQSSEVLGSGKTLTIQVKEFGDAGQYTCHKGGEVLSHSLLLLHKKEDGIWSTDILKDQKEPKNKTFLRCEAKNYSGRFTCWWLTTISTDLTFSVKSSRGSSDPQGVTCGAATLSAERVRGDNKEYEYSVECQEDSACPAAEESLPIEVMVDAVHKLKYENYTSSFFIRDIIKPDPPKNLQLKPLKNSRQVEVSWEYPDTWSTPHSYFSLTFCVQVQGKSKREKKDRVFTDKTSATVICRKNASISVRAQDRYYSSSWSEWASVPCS
# protocol: SPR, IL-12
observed-property: koff

{"columns": ["binder", "koff"],
 "data": [
  ["mAb 8 (antibody, IgG1, V domains shown, Briakinumab variant (IgG1) with five positively charged heavy chain residues mutated; also called Briakinumab with HC mutations R16A, R19A, K57A, K64A, R83A) VH: QVQLVESGGGVVQPGASLALSCAASGFTFSSYGMHWVRQAPGKGLEWVAFIRYDGSNAYYADSVAGRFTISRDNSKNTLYLQMNSLAAEDTAVYYCKTHGSHDNWGQGTMVTVSS VL: QSVLTQPPSVSGAPGQRVTISCSGSRSNIGSNTVKWYQQLPGTAPKLLIYYNDQRPSGVPDRFSGSKSGTSASLAITGLQAEDEADYYCQSYDRYTHPALLFGTGTKVTVL", "9.1e-05 s⁻¹"],
  ["Ustekinumab (antibody, V domains shown, Fully human IgG1; also called CNTO 1275; Stelara) VH: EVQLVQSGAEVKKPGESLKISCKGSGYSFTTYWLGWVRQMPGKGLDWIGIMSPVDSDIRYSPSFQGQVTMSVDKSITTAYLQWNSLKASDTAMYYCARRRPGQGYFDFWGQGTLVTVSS VL: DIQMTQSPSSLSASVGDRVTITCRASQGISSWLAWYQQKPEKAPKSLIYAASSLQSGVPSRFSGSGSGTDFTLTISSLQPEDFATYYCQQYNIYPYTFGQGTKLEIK", "0.00018 s⁻¹"]
]}

If you can, please state the reported koff value of Briakinumab (antibody, V domains shown, Fully human IgG1; also called ABT 874; J 695) VH: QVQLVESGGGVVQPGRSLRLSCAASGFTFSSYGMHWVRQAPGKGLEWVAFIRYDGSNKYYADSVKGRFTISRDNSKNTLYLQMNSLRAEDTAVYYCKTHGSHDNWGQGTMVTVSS VL: QSVLTQPPSVSGAPGQRVTISCSGSRSNIGSNTVKWYQQLPGTAPKLLIYYNDQRPSGVPDRFSGSKSGTSASLAITGLQAEDEADYYCQSYDRYTHPALLFGTGTKVTVLG .
6e-05 s⁻¹

If you can, please state the reported koff value of mAb 9 (antibody, IgG1, V domains shown, Briakinumab variant (IgG1) with three positively charged residues of the light chain CDRs mutated to alanine; also called Briakinumab with LC mutations R27A, R55A, R94A) VH: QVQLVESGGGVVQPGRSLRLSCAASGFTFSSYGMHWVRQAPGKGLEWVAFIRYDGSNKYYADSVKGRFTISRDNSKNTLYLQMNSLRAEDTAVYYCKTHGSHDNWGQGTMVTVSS VL: QSVLTQPPSVSGAPGQRVTISCSGSASNIGSNTVKWYQQLPGTAPKLLIYYNDQAPSGVPDRFSGSKSGTSASLAITGLQAEDEADYYCQSYDAYTHPALLFGTGTKVTVL .
0.00013 s⁻¹

If you can, please state the reported koff value of mAb 1 (antibody, V domains shown, Fv domain of Ustekinumab on the constant parts of Briakinumab (IgG1)) VH: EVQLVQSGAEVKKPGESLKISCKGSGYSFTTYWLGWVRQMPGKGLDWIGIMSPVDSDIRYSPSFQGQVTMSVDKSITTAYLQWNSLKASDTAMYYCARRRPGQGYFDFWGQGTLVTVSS VL: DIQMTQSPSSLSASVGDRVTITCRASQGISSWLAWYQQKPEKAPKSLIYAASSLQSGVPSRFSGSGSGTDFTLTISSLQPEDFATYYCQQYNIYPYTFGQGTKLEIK .
0.00041 s⁻¹

If you can, please state the reported koff value of mAb 2 (antibody, V domains shown, Fv domain of Briakinumab on the Ustekinumab constant domains (IgG1)) VH: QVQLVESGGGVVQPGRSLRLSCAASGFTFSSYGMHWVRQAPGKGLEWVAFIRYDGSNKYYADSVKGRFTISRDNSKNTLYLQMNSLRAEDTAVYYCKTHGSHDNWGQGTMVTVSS VL: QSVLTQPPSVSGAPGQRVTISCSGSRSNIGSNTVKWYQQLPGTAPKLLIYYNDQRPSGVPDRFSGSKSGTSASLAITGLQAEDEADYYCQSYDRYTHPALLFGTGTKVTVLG .
0.0003 s⁻¹
